# System: MRC-5SV2 (human lung fibroblast cell line)
# test-description: Toxicity against MRC-5SV2
# Type: cell-based
# assay-setup: MRC5 cells
Mark Y for MRC5 TC50 under 20 µM, N if at or over.

# example entries with known answers
Clc1ccc(-c2c(-c3ccccn3)nc3n2CCC3)cc1 [OSA_000875]: Y
Cc1ccn2c(CNc3ccc(F)cc3)c(-c3ccccn3)nc2c1 [OSA_001031]: N
Cc1ccn2cc(-c3ccccn3)nc2c1 [OSA_001030]: N
Fc1ccc(NCc2c(-c3ccccn3)nc3ccccn23)cc1 [OSA_001019]: N

stdin: Record CCN(c1ccc(F)cc1)c1c(-c2ccccn2)nc2ccccn12 [OSA_000981] : is its MRC5 TC50 strictly below 20 µM?
stdout: Y

====

microsomal CLint values by entry
# test-description: Human liver microsome intrinsic clearance
# Type: in vitro ADME
# assay-setup: human liver microsomes, NEU; read-out: HLM CLint (NEU)
Supply the numeric figure in µL/min/mg, leaving out any unit text.

c1cc(-c2nc3n(c2-c2ccc4occc4c2)CCC3)ccn1 [OSA_000862]: 36.8
COc1ccnc(-c2nc3cc(OC)ccn3c2N(C)c2ccc(F)cc2)c1 [OSA_001000]: 51.2
c1cncc(-c2nc3n(c2-c2ccc4occc4c2)CCC3)c1 [OSA_000861]: 35.5
Fc1ccc(N(CC2CC2)c2c(-c3ccccn3)nc3ccccn23)cc1 [OSA_000979]: 105
COc1cccn2c(N(C)c3ccc(F)cc3)c(-c3ccccn3)nc12 [OSA_001001]: 65.9

Next:
stdin: Suppose we examine the compound CN(c1ccc(F)cc1)c1c(-c2ccccn2)nc2cccc(F)n12 [OSA_001005] ; what microsomal CLint value has been reported?
stdout: 79.3

====

# System: PMM (primary mouse macrophages)
# test-description: Toxicity against PMM
# Format: cell-based
# assay-setup: PMM
parameter: PMM TC50 (µM)
Supply the numeric figure in µM, leaving out any unit text.

CC(C)CN(c1ccc(F)cc1)c1c(-c2ccccn2)nc2ccccn12: 23

stdin: Suppose we examine the molecule Fc1ccc(N(CC2CC2)c2c(-c3ccccn3)nc3ccccn23)cc1 ; what PMM TC50 value has been reported?
stdout: 4

stdin: Try this molecule too: CCN(c1ccc(F)cc1)c1c(-c2ccccn2)nc2ccccn12
stdout: 8

stdin: Try this molecule too: FC(F)(F)c1ccc(-c2c(-c3ccccn3)nc3n2CCC3)cc1
stdout: 32

stdin: Try this molecule too: N#Cc1ccc(-n2c(-c3ccccn3)nc3ccccc32)cc1
stdout: 64

stdin: Try this molecule too: Nc1ccc(-c2c(-c3ccccn3)nc3n2CCC3)cc1
stdout: 8

stdin: Try this molecule too: c1ccc(Cn2c(-c3ccccn3)nc3ccccc32)cc1
stdout: 64

====

# Test system: MRC-5SV2 (human lung fibroblast cell line)
# test-description: Toxicity against MRC-5SV2
# Format: cell-based
Mark Fulfilled for MRC5 TC50 under 3 µg/mL, Not fulfilled if at or over.

# example entries with known answers
N#Cc1ccc(-c2c(-c3ccccn3)nc3n2CCC3)cc1 [compound 975]: Not fulfilled
c1ccc(-c2nc3n(c2-c2ccncc2)CCC3)nc1 [compound 1072]: Not fulfilled
COc1ccn2c(Nc3ccccc3F)c(-c3cnn(C)c3)nc2c1 [compound 855]: Not fulfilled
CS(=O)(=O)c1ccc2nc(-c3ccccn3)c(Nc3ccc(F)cc3)n2c1 [compound 1020]: Not fulfilled
Cc1ccc2nc(-c3ccccc3)c(CNc3cccc(C(F)(F)F)c3)n2c1 [compound 1028]: Not fulfilled

# evaluate next
stdin: Record Cc1ccc2nc(-c3ccccc3)cn2c1 [compound 1026] : is its MRC5 TC50 strictly below 3 µg/mL?
stdout: Not fulfilled

====

# test-description: Human liver microsome intrinsic clearance
# Format: in vitro ADME
# assay-setup: human, liver microsomes; read-out: HLM CLint
parameter: microsomal CLint

These solved cases illustrate the format of a correct answer.
CS(=O)(=O)c1ccc(-c2c(-c3ccccn3)nc3n2CCC3)cc1: < 3 µL/min/mg
C[S+]([O-])c1ccc(-c2c(-c3ccccn3)nc3n2CCC3)cc1 (stereo not drawn): < 3 µL/min/mg

Next:
stdin: Suppose we examine the molecule CN(C)C(=O)c1ccc(-c2c(-c3ccccn3)nc3n2CCC3)cc1 ; what microsomal CLint value has been reported?
stdout: < 3 µL/min/mg

====

MRSA MIC values by entry
# Tested on: Staphylococcus aureus NCTC 13373 (mecA-positive; methicillin-resistant)
# test-description: In vitro antibacterial activity, MIC (UCL School of Pharmacy assay), MRSA
# Type: cell-based
Supply the numeric figure in µg/mL, leaving out any unit text.

CCCCN(Cc1c(-c2ccccc2)nc2ccc(C)cn12)c1cccc(C(F)(F)F)c1 [compound 1029]: 8
CC(C)CN(c1ccc(F)cc1)c1c(-c2ccccn2)nc2ccc(F)cn12 [compound 1024]: 8
c1ccc(-c2nc3ccccc3n2-c2ccc(N3CCCCC3)cc2)nc1 [compound 994]: 16
Fc1cccc(-c2c(-c3ccccn3)nc3n2CCC3)c1 [compound 872]: 32
Cc1ccc2nc(-c3ccccn3)c(NCc3ccccc3)n2c1 [compound 842]: 8

stdin: Suppose we examine the molecule COc1ccc(-c2nc3ccccn3c2N(CC(C)C)c2ccc(F)cc2)nc1 [compound 1034] ; what MRSA MIC value has been reported?
stdout: 8

stdin: Try this molecule too: c1ccc(-c2nc3n(c2-c2ccc4c(c2)OCO4)CCS3)nc1 [compound 813]
stdout: 32

====

# test-description: Rat hepatocyte intrinsic clearance
# Assay type: in vitro ADME
# assay-setup: rat hepatocytes, NEU; read-out: Rat Hep CLint (NEU)
parameter: hepatocyte CLint

CSc1ccc2nc(-c3ccccn3)c(N(C)c3ccc(F)cc3)n2c1 [OSA_001004]: > 300 µL/min/1e6 cells
Fc1ccc(Nc2c(-c3ccccn3)nc3sccn23)cc1 [OSA_000984]: > 300 µL/min/1e6 cells

Next:
stdin: Suppose we examine the compound CN(c1ccc(F)cc1)c1c(-c2ccccn2)nc2cccc(F)n12 [OSA_001005] ; what hepatocyte CLint value has been reported?
stdout: > 300 µL/min/1e6 cells

====

# test-description: Rat hepatocyte intrinsic clearance
# Format: in vitro ADME
# assay-setup: rat hepatocytes, NEU
parameter: Rat Hep CLint (NEU) (uL/min/10x6 cells)
Supply the numeric figure in uL/min/10x6 cells, leaving out any unit text.

Fc1ccc(-c2c(-c3ccccn3)nc3ccccn23)cc1: 49.8
Cc1nc2cc(-c3c(-c4ccccn4)nc4n3CCC4)ccc2s1: 49.1

Next:
stdin: Suppose we examine the compound Cc1ccc(-c2c(-c3ccccn3)nc3n2CCC3)cc1 ; what Rat Hep CLint (NEU) value has been reported?
stdout: 49.2

====

# System: Staphylococcus aureus NCTC 13373 (mecA-positive; methicillin-resistant)
# test-description: In vitro antibacterial activity, MIC (UCL School of Pharmacy assay), MRSA
# Assay type: cell-based
parameter: MRSA MIC

CC(C)CN(c1ccc(F)cc1)c1c(-c2ccccn2)nc2ccc(S(C)(=O)=O)cn12 [compound 1037]: > 32 µg/mL
c1ccc(-c2nc3ccccn3c2N2CCOCC2)nc1 [compound 850]: > 32 µg/mL
COc1ccn2c(Nc3cccc(F)c3)c(-c3cscn3)nc2c1.O=CO [compound 843]: > 32 µg/mL
CC(C)CN(c1ccc(F)cc1)c1c(-c2nccs2)nc2ccccn12 [compound 1010]: > 32 µg/mL

stdin: Suppose we examine the compound Cc1ccn2c(Nc3ccc(F)cc3)c(-c3ccc(N(C)C)cc3)nc2c1 [compound 846] ; what MRSA MIC value has been reported?
stdout: > 32 µg/mL

stdin: Try this compound too: COc1ccc2nc(-c3c[nH]cn3)c(Nc3ccc4c(c3)OCCO4)n2c1 [compound 867]
stdout: > 32 µg/mL

stdin: Try this compound too: COc1ccn2c(Nc3ccccc3F)c(-c3ccccn3)nc2c1 [compound 851]
stdout: 8 µg/mL

stdin: Try this compound too: N#Cc1ccc(-c2c(-c3ncccn3)nc3ccccn23)cc1 [compound 1107]
stdout: > 32 µg/mL

stdin: Try this compound too: c1cc(-c2nc3n(c2-c2ccc4c(c2)OCO4)CCC3)ccn1 [compound 817]
stdout: > 32 µg/mL

stdin: Try this compound too: c1ccc(-c2nc3n(c2-c2ccc4sccc4c2)CCC3)cc1 [compound 834]
stdout: > 32 µg/mL

stdin: Try this compound too: COc1ccn2c(Nc3ccc4c(c3)OCCO4)c(-c3c[nH]cn3)nc2c1 [compound 866]
stdout: > 32 µg/mL

stdin: Try this compound too: N#Cc1ccc(-c2c(-c3ccccn3)nc3cccnn23)cc1 [compound 1103]
stdout: > 32 µg/mL

stdin: Try this compound too: N#Cc1ccc(-c2c(-c3ccccn3)nc3ncccn23)cc1 [compound 1105]
stdout: > 32 µg/mL

====

# Tested on: Staphylococcus aureus NCTC 13373 (mecA-positive; methicillin-resistant)
# test-description: In vitro antibacterial activity, MIC (UCL School of Pharmacy assay), MRSA
# Type: cell-based
# assay-setup: Staphylococcus aureus, UCL; read-out: MRSA MIC (UCL)
parameter: MIC (µg/mL)
Supply the numeric figure in µg/mL, leaving out any unit text.

These solved cases illustrate the format of a correct answer.
Fc1ccc(-c2c(-c3ccccn3)nc3ccccn23)cc1: 32
COc1ccn2c(-c3ccccc3)c(-c3ccccn3)nc2c1: 8

stdin: Suppose we examine the compound c1ccc(-c2nc3n(c2-c2ccc4sccc4c2)CCC3)nc1 ; what MIC value has been reported?
stdout: 4

Values were extracted from paper PMC10714399.
